# tested_on: H1047R PIK3CA enzyme (Homo sapiens, UniProt P42336, H1047R)
# Sequence (P42336 whole entry H1047R): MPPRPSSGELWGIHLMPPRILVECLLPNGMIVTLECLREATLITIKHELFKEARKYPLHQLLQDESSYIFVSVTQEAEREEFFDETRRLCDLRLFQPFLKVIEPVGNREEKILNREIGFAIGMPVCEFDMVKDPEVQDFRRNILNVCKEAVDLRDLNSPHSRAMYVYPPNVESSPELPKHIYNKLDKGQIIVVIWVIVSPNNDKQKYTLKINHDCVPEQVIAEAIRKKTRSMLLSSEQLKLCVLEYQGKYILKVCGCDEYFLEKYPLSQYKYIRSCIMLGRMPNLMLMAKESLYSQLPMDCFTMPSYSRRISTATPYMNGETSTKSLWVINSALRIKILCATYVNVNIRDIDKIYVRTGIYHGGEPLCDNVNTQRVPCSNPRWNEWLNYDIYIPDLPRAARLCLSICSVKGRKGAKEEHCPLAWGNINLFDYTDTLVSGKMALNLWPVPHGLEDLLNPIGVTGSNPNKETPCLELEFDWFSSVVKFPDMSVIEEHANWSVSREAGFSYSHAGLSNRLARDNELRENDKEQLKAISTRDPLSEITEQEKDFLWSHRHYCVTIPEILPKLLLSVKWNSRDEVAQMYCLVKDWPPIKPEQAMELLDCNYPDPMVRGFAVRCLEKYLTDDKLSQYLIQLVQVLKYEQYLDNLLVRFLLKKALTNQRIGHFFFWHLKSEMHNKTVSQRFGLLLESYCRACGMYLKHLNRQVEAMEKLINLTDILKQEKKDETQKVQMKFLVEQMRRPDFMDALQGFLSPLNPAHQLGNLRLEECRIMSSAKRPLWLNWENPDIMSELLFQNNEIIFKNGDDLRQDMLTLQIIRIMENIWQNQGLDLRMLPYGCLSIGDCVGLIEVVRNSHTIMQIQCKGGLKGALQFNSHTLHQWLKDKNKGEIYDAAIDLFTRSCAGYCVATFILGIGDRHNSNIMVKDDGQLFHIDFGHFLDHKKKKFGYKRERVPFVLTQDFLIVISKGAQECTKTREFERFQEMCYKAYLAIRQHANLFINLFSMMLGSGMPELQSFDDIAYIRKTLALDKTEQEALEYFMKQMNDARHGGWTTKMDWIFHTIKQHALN
# Sequence (P27986 whole entry partner): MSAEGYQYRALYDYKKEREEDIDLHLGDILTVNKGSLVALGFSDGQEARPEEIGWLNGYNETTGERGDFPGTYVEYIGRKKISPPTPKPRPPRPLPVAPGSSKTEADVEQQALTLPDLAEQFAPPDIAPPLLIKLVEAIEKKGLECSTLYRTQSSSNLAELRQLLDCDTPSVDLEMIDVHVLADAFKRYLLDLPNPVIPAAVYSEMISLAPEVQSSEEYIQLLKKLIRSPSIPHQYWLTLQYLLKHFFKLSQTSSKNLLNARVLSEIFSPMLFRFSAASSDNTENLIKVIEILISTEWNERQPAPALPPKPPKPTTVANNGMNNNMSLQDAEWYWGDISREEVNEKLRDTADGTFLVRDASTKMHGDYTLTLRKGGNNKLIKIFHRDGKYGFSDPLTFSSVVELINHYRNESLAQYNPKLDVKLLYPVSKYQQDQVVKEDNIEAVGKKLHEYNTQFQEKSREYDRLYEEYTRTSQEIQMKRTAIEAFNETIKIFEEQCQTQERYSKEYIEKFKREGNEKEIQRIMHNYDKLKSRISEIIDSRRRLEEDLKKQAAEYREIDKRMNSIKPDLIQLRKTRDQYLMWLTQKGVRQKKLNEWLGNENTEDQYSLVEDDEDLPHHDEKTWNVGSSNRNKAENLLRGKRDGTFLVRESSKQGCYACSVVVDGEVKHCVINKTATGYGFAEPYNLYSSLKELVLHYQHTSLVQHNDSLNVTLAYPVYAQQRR
# assay_protocol: ADP-Glo Biochemical PIK3CA Kinase Assay
# Description: Compounds to be assayed were plated in 16 doses of 1:2 serial dilutions (20 nL volume each well) on a 1536-well plate, and the plate warmed to room temperature. […] To the well was added 1 μL of 200 μM ATP and 20 μM of diC8-PIP2 in Substrate Assay Buffer (50 mM HEPES pH7.4, 50 mM NaCl, 5 mM DTT and 0.03% CHAPS) to start the reaction, and the plate was shaken for 10 seconds, then spun briefly at 1500 rpm, and then incubated for 60 minutes at room temperature. […]
pIC50: −log10 of the molar value.
measurement_label: pIC50

[[record]]
molecule = "CC1(C)CC1C1NC(=O)c2cccc(NC(=O)c3cc(F)cc(C(F)(F)F)c3)c21 (centres unmarked)"
value_measured = "5.00 to 6.00"


Turning now to a further molecule:
[ask] Bench note: what pIC50 did O=C(Nc1cc(Br)cc2c1C(c1cc(F)ccc1Cl)NC2=O)c1ccc(F)cc1 (centres unmarked) show?
[reply] 4.00 to 5.00

====

Reported IC50 values are given for each entry in this list.
# tested_on: H1047R PIK3CA enzyme (Homo sapiens, UniProt P42336, H1047R)
# assay_protocol: ADP-Glo Biochemical PIK3CA Kinase Assay

Example entries and their recorded answers appear below.
[[record]]
compound = "O=C1N[C@@H](c2cc(F)ccc2Cl)c2c(NC(=O)[C@@H]3CCC[C@H](C(F)(F)F)C3)cc(-c3ccc4ncnn4c3)cc21"
value_measured = "500 to 1000 nM"

[[record]]
compound = "O=C(Nc1cc(-c2cccnc2)cc2c1C(c1cc(F)ccc1Cl)NC2=O)c1cc(F)cc(C(F)(F)F)c1 (stereo not drawn)"
value_measured = "≤ 100 nM"


Turning now to a further compound:
[ask] Bench note: what IC50 did COc1ncc(-c2cc(NC(=O)c3cc(F)cc(C(F)(F)F)c3)c3c(c2)C(=O)NC3c2cc(F)ccc2Cl)c(N)n1 (stereo not drawn) show?
[reply] 100 to 500 nM

====

# tested_on: H1047R PIK3CA enzyme (Homo sapiens, UniProt P42336, H1047R)
# assay_protocol: ADP-Glo Biochemical PIK3CA Kinase Assay
Reported IC50 values are given for each entry in this list.

Example entries and their recorded answers appear below.
[[record]]
compound = "O=C1NCc2c(NC(=O)N3CCCC[C@H]3Cc3ccccc3)cccc21 (stereo in doubt) [Compound I-988]"
tested_on = "H1047R PIK3CA enzyme (Homo sapiens, UniProt P42336, H1047R)"
measurement_label = "IC50"
value_measured = "10 to 100 µM"

[[record]]
compound = "O=C(Nc1cc(-c2ccc3nnnn3c2)cc2c1[C@@H](c1cc(F)ccc1Cl)NC2=O)c1cc(F)cc(C(F)(F)F)c1 [Compound I-1452]"
tested_on = "H1047R PIK3CA enzyme (Homo sapiens, UniProt P42336, H1047R)"
measurement_label = "IC50"
value_measured = "1 to 10 µM"


[ask] Bench note: what IC50 did CC1(C2NC(=O)c3cccc(NC(=O)c4cc(F)cc(C(F)(F)F)c4)c32)CC1 (racemic) [Compound I-1791] show?
[reply] 10 to 100 µM

[ask] Bench note: what IC50 did NCc1cc(-c2ccc3ncnn3c2)cc2c1C(c1cc(F)ccc1Cl)NC2=O (stereo not shown) [Compound I-1950] show?
[reply] 10 to 100 µM

====

# tested_on: H1047R PIK3CA enzyme (Homo sapiens, UniProt P42336, H1047R)
# assay_protocol: ADP-Glo Biochemical PIK3CA Kinase Assay
pIC50: −log10 of the molar value.
measurement_label: pIC50

Example entries and their recorded answers appear below.
[[record]]
molecule = "O=C(Nc1cc(NC2=NCCO2)cc2c1C(c1cc(F)ccc1Cl)NC2=O)c1cc(F)cc(C(F)(F)F)c1 (stereo not shown) [Compound I-2256]"
value_measured = "≥ 7.00"

[[record]]
molecule = "CCC[C@@]1(O)CN(C(=O)Nc2cccc3c2[C@H](c2cc(F)ccc2Cl)NC3=O)c2ccc(F)cc21 (single isomer, unassigned) [Compound I-2459]"
value_measured = "5.00 to 6.00"


[ask] Bench note: what pIC50 did CC(=O)c1cc(NC(=O)c2cc(F)cc(C(F)(F)F)c2)c2c(c1)C(=O)NC2c1cc(F)ccc1C(F)F (stereo not shown) [Compound I-238] show?
[reply] ≥ 7.00

[ask] Bench note: what pIC50 did CC(C)(O)COc1cc(NC(=O)c2cc(F)cc(C(F)(F)F)c2)c2c(n1)C(=O)NC2c1cc(F)ccc1Cl (stereo not shown) [Compound I-1421] show?
[reply] 6.30 to 7.00

====

# tested_on: H1047R PIK3CA enzyme (Homo sapiens, UniProt P42336, H1047R)
# assay_protocol: ADP-Glo Biochemical PIK3CA Kinase Assay
# Procedure: Compounds to be assayed were plated in 16 doses of 1:2 serial dilutions (20 nL volume each well) on a 1536-well plate, and the plate warmed to room temperature. […] To the well was added 1 μL of 200 μM ATP and 20 μM of diC8-PIP2 in Substrate Assay Buffer (50 mM HEPES pH7.4, 50 mM NaCl, 5 mM DTT and 0.03% CHAPS) to start the reaction, and the plate was shaken for 10 seconds, then spun briefly at 1500 rpm, and then incubated for 60 minutes at room temperature. […]
measurement_label: IC50

Example entries and their recorded answers appear below.
[[record]]
molecule = "Cn1nc(-c2cc(NC(=O)c3cc(F)cc(C(F)(F)F)c3)c3c(c2)C(=O)NC3c2cc(F)ccc2Cl)ccc1=O (stereo not drawn)"
tested_on = "H1047R PIK3CA enzyme (Homo sapiens, UniProt P42336, H1047R)"
value_measured = "≤ 100 nM"

[[record]]
molecule = "O=C(Nc1cc(-c2cnn3cccnc23)cc2c1C(c1cc(F)ccc1Cl)NC2=O)c1cc(F)cc(C(F)(F)F)c1 (stereo not drawn)"
tested_on = "H1047R PIK3CA enzyme (Homo sapiens, UniProt P42336, H1047R)"
value_measured = "≤ 100 nM"

[[record]]
molecule = "N#Cc1nn(C(F)F)cc1-c1cc(NC(=O)c2cc(F)cc(C(F)(F)F)c2)c2c(c1)C(=O)N[C@H]2c1cc(F)ccc1Cl"
tested_on = "H1047R PIK3CA enzyme (Homo sapiens, UniProt P42336, H1047R)"
value_measured = "≤ 100 nM"

[[record]]
molecule = "N#Cc1cccc(S(=O)(=O)Cc2cc(NC(=O)c3cc(F)cc(C(F)(F)F)c3)c3c(c2)C(=O)N[C@@H]3c2cc(F)ccc2Cl)c1"
tested_on = "H1047R PIK3CA enzyme (Homo sapiens, UniProt P42336, H1047R)"
value_measured = "1000 to 10000 nM"

[[record]]
molecule = "C[S@](=O)(Cc1cc(NC(=O)c2cc(F)cc(C(F)(F)F)c2)c2c(c1)C(=O)N[C@H]2c1cc(F)ccc1Cl)=NC#N (single isomer, unassigned)"
tested_on = "H1047R PIK3CA enzyme (Homo sapiens, UniProt P42336, H1047R)"
value_measured = "≤ 100 nM"


[ask] Bench note: what IC50 did CC1(COc2cc(NC(=O)c3cc(F)cc(C(F)(F)F)c3)c3c(c2)C(=O)NC3c2cc(F)ccc2Cl)COC1 (stereo not drawn) show?
[reply] ≤ 100 nM

[ask] Bench note: what IC50 did O=C(Nc1cccc2c1C(c1cc(Cl)cc(F)c1F)NC2=O)c1cc(F)cc(C(F)(F)F)c1 (stereo not drawn) show?
[reply] 100 to 500 nM

[ask] Bench note: what IC50 did CN(C)C(=O)Cc1cc(NC(=O)c2cc(F)cc(C(F)(F)F)c2)c2c(c1)C(=O)NC2c1cc(F)ccc1Cl (stereo not drawn) show?
[reply] ≤ 100 nM

====

# tested_on: H1047R PIK3CA enzyme (Homo sapiens, UniProt P42336, H1047R)
# assay_protocol: ADP-Glo Biochemical PIK3CA Kinase Assay
Reported IC50 values are given for each entry in this list.

Example entries and their recorded answers appear below.
[[record]]
molecule = "Cc1ccccc1C1NC(=O)c2cccc(NC(=O)c3cc(F)cc(C4COC4)c3)c21 (centres unmarked)"
tested_on = "H1047R PIK3CA enzyme (Homo sapiens, UniProt P42336, H1047R)"
value_measured = "1000 to 10000 nM"

[[record]]
molecule = "O=C1NC(c2cc(F)ccc2Cl)c2c(NC(=O)C3CCCCC3)cccc21 (centres unmarked)"
tested_on = "H1047R PIK3CA enzyme (Homo sapiens, UniProt P42336, H1047R)"
value_measured = "1000 to 10000 nM"

[[record]]
molecule = "CS(=O)(Cc1cc(NC(=O)c2cc(F)cc(C(F)(F)F)c2)c2c(c1)C(=O)NC2c1cc(F)ccc1Cl)=Nc1cccnc1 (centres unmarked)"
tested_on = "H1047R PIK3CA enzyme (Homo sapiens, UniProt P42336, H1047R)"
value_measured = "≤ 100 nM"

[[record]]
molecule = "CNC(=O)c1cc(NC(=O)c2cc(F)cc(C(F)(F)F)c2)c2c(c1)C(=O)NC2c1cc(F)ccc1Cl (centres unmarked)"
tested_on = "H1047R PIK3CA enzyme (Homo sapiens, UniProt P42336, H1047R)"
value_measured = "≤ 100 nM"

[[record]]
molecule = "N#Cc1cnn(-c2cc(NC(=O)N3C[C@@H](O)c4cc(F)ccc43)c3c(c2)C(=O)N[C@H]3c2cc(F)ccc2Cl)c1 (single isomer, unassigned)"
tested_on = "H1047R PIK3CA enzyme (Homo sapiens, UniProt P42336, H1047R)"
value_measured = "≤ 100 nM"

[[record]]
molecule = "C[S+]([O-])Cc1cc(NC(=O)c2cc(F)cc(C(F)(F)F)c2)c2c(c1)C(=O)NC2c1cc(F)ccc1Cl (centres unmarked)"
tested_on = "H1047R PIK3CA enzyme (Homo sapiens, UniProt P42336, H1047R)"
value_measured = "≤ 100 nM"

[[record]]
molecule = "O=C(Nc1cc(-c2cnn(C3CC3)c2)cc2c1[C@@H](c1cc(F)ccc1Cl)NC2=O)c1cc(F)cc(C(F)(F)F)c1 (single isomer, unassigned)"
tested_on = "H1047R PIK3CA enzyme (Homo sapiens, UniProt P42336, H1047R)"
value_measured = "10000 to 100000 nM"

[[record]]
molecule = "CN1CC(COc2cc(NC(=O)c3cc(F)cc(C(F)(F)F)c3)c3c(c2)C(=O)NC3c2cc(F)ccc2Cl)CC1=O (mixture of isomers)"
tested_on = "H1047R PIK3CA enzyme (Homo sapiens, UniProt P42336, H1047R)"
value_measured = "≤ 100 nM"


[ask] Bench note: what IC50 did CCCNc1cc(NC(=O)c2cc(F)cc(C(F)(F)F)c2)c2c(n1)C(=O)NC2c1cc(F)ccc1Cl (centres unmarked) show?
[reply] ≤ 100 nM

[ask] Bench note: what IC50 did CC(C)(O)COc1cc(NC(=O)c2cc(F)cc(C(F)(F)F)c2)c2c(c1)C(=O)NC2c1cc(F)ccc1Cl (centres unmarked) show?
[reply] ≤ 100 nM

[ask] Bench note: what IC50 did N#CCOc1cc(NC(=O)c2cc(F)cc(C(F)(F)F)c2)c2c(c1)C(=O)NC2c1cc(F)ccc1Cl (centres unmarked) show?
[reply] ≤ 100 nM
